These entries and their values trace back to patent US7070965B1.

Experiment Description: Human clinical studies on the safety of iso-C15
Type: in vivo
Assay Setup: before test; X ± SD, 6 cases
Metric: HB (g/L)
Give bare numbers, in g/L.

Note HB for the molecule shown: CC(C)CCCCCCCCCCCC(=O)O [iso-C15, 13-methyltetradecanoic acid]
122

----------
Tested on: Lewis mouse lung tumor
Assay Setup: CTX 30 mg/kg i.p. once a day, 8 days
Metric: body weight fi. (final) (g)
Give bare numbers, in g.

Fill: body weight fi. (final) (Lewis mouse lung tumor) for this molecule O=P1(N(CCCl)CCCl)NCCCO1 (stereo not shown)
20.3

----------
Experiment Description: Determination of LD50
Assay type: in vivo
Assay Setup: both sexes, ICR, mouse, in vivo, ip
Metric: LD50 at 7 days

Note LD50 at 7 days for the molecule shown: `CC(C)CCCCCCCCCCCC(=O)O`
> 800 mg/kg
